tested on: HT29 colon; test: NCI tumour cell line growth inhibition, 48 h
PROPERTY_NAME: GI50

Worked cases, GI50 given:
COMPOUND	GI50
O=C(NC1=CC(=O)c2ccccc2C1=O)c1ccccc1	2.33 µM
CC(C)n1nc(-c2cc3cc(O)ccc3[nH]2)c2c(N)ncnc21	0.465 µM
CC(C)(C)c1cc(C(C)(C)C)cc(S(=O)(=O)Nc2cc3ccccc3cc2C(=O)NCCN)c1	1.93 µM
CN(C)C(=O)c1cc2cnc(Nc3ccc(-c4csc5c(=S)cc(N6CCOCC6)oc45)cc3)nc2n1C1CCCC1	0.515 µM
COc1ccc(Nc2c3ccccc3nc3occc23)cc1	1.49 µM
COc1ccc(Cn2cc3c(c2-c2ccccc2)CC(C)(C)c2cnoc2-3)cc1	0.95 µM
O=C1OC(C(O)CO)C(=O)C1=O (centres undefined)	4240 µM
Clc1ccc(C2=Nn3c(COc4ccccc4Cl)nnc3SC2)c(Cl)c1	14 µM

API: the following record is the query input.
// query GI50 value for entry COc1cc(/C=C/c2cc(/C=C/c3ccc(O)c(OC)c3)n(C(=O)Nc3ccc(F)c(Cl)c3)n2)ccc1O
1.31 µM
